Where do the numbers come from? From patent US20100196385A1.

Parameter FL1: see the listing below.
target_of_assay: T1, full length human DLL4 (human, UniProt Q9NR61 27-685)
T1 construct: whole, on cells; also called native DLL4 expressed in HEK293 cells
test_protocol: FMAT, hybridoma supernatant, 293T cells with human DLL4
Respond with the number and no other words.

Known FL1 results, listed for orientation:
binder | FL1
3A7 (antibody, IgG4, V domains shown, Fully human; also used where no isotype is printed) VH: EVQVVESGGGLVQPGGSLRLSCEASGFTFSNYWMIWVRQAPGKGLEWVASIKEDGSEKYYVDSVKGRFTISRDNAKSSLYLQMNSLRAEDTAVYYCVRDWELRGHYYYHGMDVWGQGTTVTVSS VL: DIQMTQSPSSLSASVGDRVTITCRASLDIRNDLGWFLQKPGKAPKRLIYAASSLQSGVPSRFSGSGSGTEFTLTINSLQPEDFATYYCLQHRNYPFTFGPGTKVDFK | 9470
1E4 (antibody, IgG2, V domains shown, Fully human; also used where no isotype is printed) VH: QVQLVESGGGVVQPGRSLRLSCAASGFTFSSYGMHWVRQAPGKGLEWVAVTWYDGSNKYYADSVKGRFTISRDNSKNTLYLQMNSLRAEDTAVYYCARENCSSTSCYYTVTTDYYGMDVWGQGTTVTVSS VL: EIVLTQSPGTLSLSPGERATLSCRASQRVSSSYLTWYQQKPGQAPRLLIYGASIRATGIPDRFSGSGSGTDFTLTITRLEPEDFAVYFCQQCYTSPITFGQGTRLDIK | 10400
9G8 (antibody, IgG4, V domains shown, Fully human; used for IgG4 rows and where no isotype is printed; also called 9G8 IgG4) VH: QLQLQESGPGLVKPSETLSLSCTVSGGSISSSSSYWGLIRQPPGKGLEWIGSIYYSGSTYYSPSLKSRVSISVDTSKNQFSLKLSSVTAADTAVYFCARQGYGGHPDVFDIWGQGTMVTVSS VL: SSELTQSPSVSVSPGQTARITCSGDKLGDVYVCWYQQKTGQSPVLVIYEDTKRPSGIPERFSGSNSGNTATLTISGTQVMDEADYYCQAWDSTTAVIFGGGTKLTVL | 9810
4B3 (antibody, IgG4, V domains shown, Fully human; also used where no isotype is printed) VH: QVQLVQSGAEVRKSGASVKVSCKASGYSFTTYDINWVRQATGQGLEWMGWMNPNSGYTDYAQKFQGRVTLTRNMSIDTAYMELSSLRSEDTAVYYCARAYYYDSSAYYLFDYWGQGTLVTVSS VL: DIQMTQSPSSLSASVGDRVTITCRASQGISNYLAWFQQKPGKAPKSLIYAASSLQSGVPSKFSGSGSGTDFTLTISSLQPEDFATYFCQQYISYPLTFGGGTKVEI | 11000

Please examine the following record next.
// recorded FL1 for 1D4 (antibody, IgG4, V domains shown, Fully human XenoMouse antibody; also used where no isotype is printed) VH: QLQLQESGPGLVKPSETLSLTCTVSGGSISSSSYYWGWIRQPPGKGLEWIGSFYYSRSTYYNPSLKSRVTISVDTSKNQFSLKLSSVTAADTAVHYCARGSIAVPDAFDIWGQGTMVTVSS VL: SYELTQPPSVSVSPGQTASITCSGDKLGDKFACWYQQKPGHSPVLVVYQDNKRPSGIPERFSGSNSGNSATLTISGTQAMDEADYYCQAWDSNTAVFGGGTKLTVL : 10600
